Listed binders paired with reported optical density
- tested.system: human ACVR2A (human, UniProt P27037 20-135, limits assumed); also: test concentration or dose not given here
- Sequence (P27037 20-135 limits assumed): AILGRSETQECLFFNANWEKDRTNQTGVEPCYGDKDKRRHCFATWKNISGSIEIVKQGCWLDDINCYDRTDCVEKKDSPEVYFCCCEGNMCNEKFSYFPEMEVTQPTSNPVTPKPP
- assay.notes: ELISA

- binder: "369_F07 (antibody, V domains shown, VH/VL only) VH: EVQLLESGGGLVQPGGSLRLSCAASGFTFDSYSMNWVRQAPGKGLEWVAGINYNGGYKSYADSVKGRFTISRDNSKNTLYLQMNSLRAEDTAVYYCARSATWHDTHLDYWGQGTLVTVSS VL: DIQMTQSPSSLSASVGDRVTITCRASQSILSYVNWYQQKPGKAPKLVIYAATSRASGVPSRFSGSGSGTDFTLTISSLQPEDFATYYCQQSYESPLTFGGGTKVEIK"
  optical density [OD]: 3.43
- binder: "365_C07 (antibody, V domains shown, VH/VL only) VH: EVQLLESGGGLVQPGGSLRLSCAASGFTFSDYGMNWVRQAPGKGLEWVASINYNGGYTSYADSVKGRFTISRDNSKNTLYLQMNSLRAEDTAVYYCARSATWHDTALDYWGQGTLVTVSS VL: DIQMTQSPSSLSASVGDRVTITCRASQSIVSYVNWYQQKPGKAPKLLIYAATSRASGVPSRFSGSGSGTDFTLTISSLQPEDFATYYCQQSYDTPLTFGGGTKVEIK"
  optical density [OD]: 1.94
- binder: "368_H07 (antibody, V domains shown, VH/VL only) VH: EVQLLESGGGLVQPGGSLRLSCAASGFTFSSYGMHWVRQAPGKGLEWVASINYNSGYTSYADSVKGRFTISRDNSKNTLYLQMNSLRAEDTAVYYCARSATWHDTHLDYWGQGTLVTVSS VL: DIQMTQSPSSLSASVGDRVTITCRASQSILSYLNWYQQKPGKAPKLLIYAATSRASGVPSRFSGSGSGTDFTLTISSLQPEDFATYYCQQSYENPLTFGGGTKVEIK"
  optical density [OD]: 2.71
